Test system: macrophages (J774 A1)
Experimental details: Cytotoxicity assay in mammalian cells (MTT), macrophages, 48 h
Type: cell-based
Readout label: CC50 (µM)
Give a bare numeral; the unit µM is implied.

Query :: Sample CCOC(=O)c1noc(-c2ccc([N+](=O)[O-])cc2)c1CNc1ccccc1 — what was its CC50?
Result :: 202

----------
Overview of recorded CC50 at 48 h for various molecules
Experimental details: Cytotoxicity assay in mammalian cells (MTT), macrophages, 48 h
Assay type: cell-based
Setup conditions: mouse, J774 A1 macrophages, pH 7.2; 50 % inhibition of macrophages growth, 48 h, MTT
Give a bare numeral; the unit µM is implied.

Worked examples follow.
Query :: Sample O=C(N/N=C/c1ccccc1)c1noc(-c2ccc([N+](=O)[O-])cc2)c1CNc1ccc(Cl)cc1 — what was its CC50 at 48 h?
Result :: 287

Query :: Sample NNC(=O)c1noc(-c2ccc(F)cc2)c1CNc1ccccc1 — what was its CC50 at 48 h?
Result :: 174

Query :: Sample COc1ccc(NCc2c(C(=O)N/N=C/c3ccc(-c4cccs4)s3)noc2-c2ccccc2)cc1 — what was its CC50 at 48 h?
Result :: 170

Query :: Sample COc1ccc(NCc2c(C(=O)N/N=C/c3ccc(-c4cccs4)s3)noc2-c2ccc([N+](=O)[O-])cc2)cc1 — what was its CC50 at 48 h?
Result :: 184

Query :: Sample O=C(N/N=C/c1ccccn1)c1noc(-c2ccccc2)c1CNc1ccc(Cl)cc1 — what was its CC50 at 48 h?
Result :: 301

Query :: Sample COc1ccc(NCc2c(C(=O)N/N=C/c3ccccn3)noc2-c2ccc(Cl)cc2)cc1 — what was its CC50 at 48 h?
Result :: 98.6

Next:
Query :: Sample O=C(N/N=C/c1ccccc1)c1noc(-c2ccccc2)c1CNc1ccc(Cl)cc1 — what was its CC50 at 48 h?
Result :: 305

Query :: Sample COc1ccc(NCc2c(C(=O)NN)noc2-c2ccc(Cl)cc2)cc1 — what was its CC50 at 48 h?
Result :: 210

Query :: Sample O=C(N/N=C/c1ccc(-c2cccs2)s1)c1noc(-c2ccccc2)c1CNc1ccc(Cl)cc1 — what was its CC50 at 48 h?
Result :: 188

Query :: Sample O=C(N/N=C/c1ccccn1)c1noc(-c2ccc(Cl)cc2)c1CNc1ccc(Cl)cc1 — what was its CC50 at 48 h?
Result :: 198

Query :: Sample COc1ccc(NCc2c(C(=O)N/N=C/c3ccccn3)noc2-c2ccc(F)cc2)cc1 — what was its CC50 at 48 h?
Result :: 255

Query :: Sample O=C(N/N=C/c1ccc(-c2cccs2)s1)c1noc(-c2ccc([N+](=O)[O-])cc2)c1CNc1ccccc1 — what was its CC50 at 48 h?
Result :: 210
